FYI, the data here is from patent US20190322750A1.

Field: absorbance at 490 nm. Provide a value for each of the binders that follow.
- study-system: T1, ITGA6
- T1 construct: unrelated antigen column; all antibodies give 0.5 to 0.6
- T1 sequence (P23229 whole entry, species assumed, looked up): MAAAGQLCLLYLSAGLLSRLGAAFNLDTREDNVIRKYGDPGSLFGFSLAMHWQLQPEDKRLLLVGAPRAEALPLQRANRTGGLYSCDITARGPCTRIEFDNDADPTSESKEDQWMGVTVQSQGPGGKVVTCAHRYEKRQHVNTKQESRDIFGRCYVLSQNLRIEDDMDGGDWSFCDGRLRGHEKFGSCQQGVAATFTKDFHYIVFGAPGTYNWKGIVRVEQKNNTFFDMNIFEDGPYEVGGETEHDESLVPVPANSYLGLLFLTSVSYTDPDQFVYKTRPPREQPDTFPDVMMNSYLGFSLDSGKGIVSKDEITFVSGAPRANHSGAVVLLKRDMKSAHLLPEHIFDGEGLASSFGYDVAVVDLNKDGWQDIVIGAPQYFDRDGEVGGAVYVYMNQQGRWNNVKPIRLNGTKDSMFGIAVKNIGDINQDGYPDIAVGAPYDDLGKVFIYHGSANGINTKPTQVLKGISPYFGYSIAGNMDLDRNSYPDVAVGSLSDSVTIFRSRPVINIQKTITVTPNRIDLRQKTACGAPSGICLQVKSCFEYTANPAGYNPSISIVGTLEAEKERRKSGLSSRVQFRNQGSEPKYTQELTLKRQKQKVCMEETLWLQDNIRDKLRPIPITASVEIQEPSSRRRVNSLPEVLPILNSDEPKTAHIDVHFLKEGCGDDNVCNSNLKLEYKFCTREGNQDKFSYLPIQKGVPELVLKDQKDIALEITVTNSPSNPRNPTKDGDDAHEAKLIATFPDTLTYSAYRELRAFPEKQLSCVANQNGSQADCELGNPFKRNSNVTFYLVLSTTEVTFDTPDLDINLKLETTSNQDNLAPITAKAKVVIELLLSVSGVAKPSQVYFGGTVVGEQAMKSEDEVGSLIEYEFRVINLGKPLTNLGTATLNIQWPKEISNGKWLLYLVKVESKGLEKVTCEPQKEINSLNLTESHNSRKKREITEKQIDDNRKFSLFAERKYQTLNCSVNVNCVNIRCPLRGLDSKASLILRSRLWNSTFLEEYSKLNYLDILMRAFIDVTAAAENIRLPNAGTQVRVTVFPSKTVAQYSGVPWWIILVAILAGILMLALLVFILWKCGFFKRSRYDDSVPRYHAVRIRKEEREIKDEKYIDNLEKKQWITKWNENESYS
- assay-text: ELISA on coated antigen, column ITGA6
Answer as a number with no unit attached.

// sample PDL1-23E5 (antibody, V domains shown, Only FR/CDR pieces are tied to the clone) VH: QVQLVQSGAEVVKPGSSVKVSCKASGDTFSRYAISWVRQAPGQAPEWMGRIIPVLGAANYARKFQDRVTITADISTTTAFMELTSLRSEDTAVYYCARSLSGYSLGAFDVWGPGTLVTVSS VL: QLVLTQPPSVSGAPGQSVSISCIGSNSNIGTPYDVHWYQQIPGEAPKLLIYGSTNRPSGVPDRFSGSRSGSSASLDITGLQADDEAYYYCQSYDRSLGVSDVVFGGGTKLTVL , its absorbance at 490 nm was 0.5

// absorbance at 490 nm lookup, binder = PDL1-30B1 (antibody, V domains shown, Only FR/CDR pieces are tied to the clone) VH: QVQLVESGGGVVQPGRSLRLSCAASGFTFSSYAMHWVRQGPGKGLEWVAVISYDGSNEFYADSVKGRFTISRDNSKNTLYLQMNSLRAEDTAVYYCARGDYNGVYMDVWGQGTTVTVSS VL: DIVMTQTPLSLSVTPGQPASISCKSSQSLLHSDGKTYLYWYLQKPGQSPQLLIYEVSKRFSGVPDRFSGSGSGTDFTLKIGRVEAEDVGVYYCMQGLHLPYTFGQGTKLEIK , result: 0.6
